Provenance of the data: ChEMBL document CHEMBL1156797

# Assay procedure: Cytotoxicity against human KB cells after 72 hrs by alamar blue assay
# Type: cell-based
Quantity: CC50 at 72 h (µM)
One number for each entry, in µM.

• COc1ccc2c(c1)C(=O)C(c1ccc(N(C)C)cc1)=[N+]2[O-] = 338
• COc1ccc2c(c1)C(=O)C(c1cccc(Cl)c1)=[N+]2[O-] = 64
• COc1ccc2c(c1)C(=O)C(c1ccc(OC(F)(F)F)cc1)=[N+]2[O-] = 11
• CCN(CC)CCCC(C)Nc1ccnc2cc(Cl)ccc12 (stereo not given) = 44
• COc1ccc2c(c1)C(=O)C(c1ccc(OC(C)C)cc1)=[N+]2[O-] = 321
• COc1ccc(C2=[N+]([O-])c3cc(OC(F)(F)F)ccc3C2=O)cc1 = 16
• COc1ccc(C2=[N+]([O-])c3ccccc3C2=O)cc1 = 457
• O=C1C(c2ccc(Cl)c(Cl)c2)=[N+]([O-])c2ccccc21 = 570
• O=C1C(c2ccc(Cl)cc2)=[N+]([O-])c2cc3c(cc21)OCO3 = 27

QUERY: Look at this compound and give its reported CC50 at 72 h. COc1ccc2c(c1)C(=O)C(c1ccc(Oc3ccccc3)cc1)=[N+]2[O-]
RESULT: 5.6

----------
Would you mind telling me the reported CC50 at 48 h of each entry?
# Assay procedure: Cytotoxicity against human MCF7 cells after 48 hrs by MTT assay
# Assay type: cell-based
Give bare numbers, in µM.

See these solved cases before continuing.
* O=C1C(c2ccc(Cl)cc2)=[N+]([O-])c2ccccc21 | 17.8
* O=C1C(c2ccc([N+](=O)[O-])cc2)=[N+]([O-])c2ccccc21 | 2.8
* COc1ccc2c(c1)C(=O)C(c1ccc(Cl)cc1)=[N+]2[O-] | 21.5

// each molecule listed below needs its CC50 at 48 h
1. CC(C)CC1=[N+]([O-])c2ccccc2C1=O
2. O=C1C(c2ccsc2)=[N+]([O-])c2cc(Cl)ccc21
3. COc1ccc(C2=[N+]([O-])c3cc(Cl)ccc3C2=O)cc1
4. CCN(CC)c1ccc(C2=[N+]([O-])c3ccc(OC)cc3C2=O)cc1
5. CCN(CC)CCCC(C)Nc1ccnc2cc(Cl)ccc12 (configuration not stated)
6. COc1ccc2c(c1)C(=O)C(c1ccc(NC(C)=O)cc1)=[N+]2[O-]

RESULT:
43.1
4.9
22.2
17.6
19.4
7.4

// each molecule listed below needs its CC50 at 48 h
1. O=C1C(c2ccc(C(F)(F)F)cc2)=[N+]([O-])c2ccccc21
2. COc1ccc(C2=[N+]([O-])c3cc(C(F)(F)F)ccc3C2=O)cc1
3. COc1ccc2c(c1)C(=O)C(c1ccc(Cl)c(C)c1)=[N+]2[O-]
4. COc1ccc(C2=[N+]([O-])c3cc([N+](=O)[O-])ccc3C2=O)cc1

RESULT:
[34.3, 7.9, 10.3, 21.8]

// each molecule listed below needs its CC50 at 48 h
1. COc1ccc2c(c1)C(=O)C(c1ccsc1)=[N+]2[O-]
2. CCOc1ccc(C2=[N+]([O-])c3cc4c(cc3C2=O)OCO4)cc1
3. Cc1ccc(C2=[N+]([O-])c3ccccc3C2=O)cc1
4. O=C1C(c2ccc(Oc3ccccc3)cc2)=[N+]([O-])c2ccccc21
5. COc1ccc2c(c1)C(=O)C(c1ccc(OC(F)(F)F)cc1)=[N+]2[O-]
6. COc1ccc2c(c1)C(=O)C(c1cc(OC)c3ccccc3c1)=[N+]2[O-]
7. COc1ccc2c(c1)C(=O)C(c1ccc(-c3ccc(Cl)cc3)cc1)=[N+]2[O-]

RESULT:
1. 12.3
2. 51.9
3. 15
4. 11.1
5. 8.3
6. 14.4
7. 12.1

----------
# Assay procedure: Cytotoxicity against human MCF7 cells after 48 hrs by MTT assay
# Type: cell-based
Would you mind telling me the reported CC50 at 48 h of each entry?
One number for each entry, in µM.

See these solved cases before continuing.
* COc1ccc2c(c1)C(=O)C(c1ccccc1)=[N+]2[O-] | 13.4
* COc1ccc2c(c1)C(=O)C(c1ccc(N)cc1)=[N+]2[O-] | 12.7
* O=C1C(c2ccc(Oc3ccccc3)cc2)=[N+]([O-])c2cc(OCc3ccccc3)ccc21 | 2.2

// next entry
QUERY: Look at this compound and give its reported CC50 at 48 h. O=C1C(c2ccc(Oc3ccccc3)cc2)=[N+]([O-])c2cc3c(cc21)OCO3
RESULT: 12.2

----------
# Assay procedure: Cytotoxicity against human KB cells after 72 hrs by alamar blue assay
# Format: cell-based
Quantity: CC50 at 72 h (µM)
Answers are plain numbers, in µM.

See these solved cases before continuing.
* COc1ccc(C2=[N+]([O-])c3ccc(OC)cc3C2=O)cc1 | 874
* C[C@H]1[C@H](OC(=O)CCC(=O)[O-])O[C@@H]2O[C@@]3(C)CC[C@H]4[C@H](C)CC[C@@H]1[C@@]24OO3.[Na+] [SODIUM ARESUNATE] | 36.2
* COc1ccc2c(c1)C(=O)C(c1ccc(C)cc1)=[N+]2[O-] | 56
* COc1ccc2c(c1)C(=O)C(c1ccc(C(F)(F)F)cc1)=[N+]2[O-] | 110
* COc1ccc2cc(C3=[N+]([O-])c4ccccc4C3=O)ccc2c1 | 233

// each molecule listed below needs its CC50 at 72 h
1. COc1ccc2c(c1)C(=O)C(c1ccc(Cl)cc1)=[N+]2[O-]
2. COc1ccc2c(c1)C(=O)C(c1ccc(C)c(C)c1)=[N+]2[O-]

RESULT:
1: 469; 2: 148

----------
# Assay procedure: Cytotoxicity against human MCF7 cells after 48 hrs by MTT assay
# Format: cell-based
Quantity: CC50 at 48 h

- COc1ccc(C2=[N+]([O-])c3ccccc3C2=O)cc1: > 39.5 µM

// each compound listed below needs its CC50 at 48 h
1. COc1ccc2c(c1)C(=O)C(c1ccc(C)cc1)=[N+]2[O-]
2. COc1ccc2c(c1)C(=O)C(c1ccc(OC)c(C)c1)=[N+]2[O-]
3. CCc1ccc(C2=[N+]([O-])c3ccccc3C2=O)cc1

RESULT:
1. > 37.5 µM
2. > 33.6 µM
3. > 39.8 µM
